target: kappa opioid receptors (Cavia porcellus, UniProt P41144); construct: fresh guinea pig brain homogenate; test: biochemical
Sequence (P41144 whole entry): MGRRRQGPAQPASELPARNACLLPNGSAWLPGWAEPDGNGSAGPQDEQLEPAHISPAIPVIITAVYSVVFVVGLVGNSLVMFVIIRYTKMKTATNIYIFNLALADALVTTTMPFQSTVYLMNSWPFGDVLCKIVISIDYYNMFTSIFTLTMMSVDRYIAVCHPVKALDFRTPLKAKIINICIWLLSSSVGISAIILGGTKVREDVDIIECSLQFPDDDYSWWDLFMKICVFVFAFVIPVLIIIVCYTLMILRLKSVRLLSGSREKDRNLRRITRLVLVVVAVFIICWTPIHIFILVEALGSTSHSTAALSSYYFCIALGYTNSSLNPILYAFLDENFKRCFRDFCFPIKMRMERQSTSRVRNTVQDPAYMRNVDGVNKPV
Counter-ions that a name gives are not always drawn.
// NB: equality with 2 nM counts as criterion not met; only Ki strictly below is criterion met

> print(dat)
                                   molecule          label
1  O=C(Cc1ccc(Cl)c(Cl)c1)N1CCc2sccc2C1CN1CCCC1 (single isomer, unassigned) [Example 9, tartrate hemihydrate]  criterion met

Ask: A record lists CN(C)CC1c2ccsc2CCN1C(=O)Cc1ccc(C(F)(F)F)cc1 (stereo not drawn) [Example 7, hydrate] . Is its Ki below 2 nM?
Result: criterion not met

Ask: A record lists Cl.O=C(Cc1ccc(C(F)(F)F)cc1)N1CCc2sccc2C1CN1CCCC1 (stereo not drawn) [Example 4, hydrochloride] . Is its Ki below 2 nM?
Result: criterion met

Ask: A record lists Cl.O.O=C(Cc1ccc(Cl)c(Cl)c1)N1CCc2sccc2C1CN1CCCC1 (stereo not drawn) [Example 3, hydrochloride monohydrate] . Is its Ki below 2 nM?
Result: criterion met

Ask: A record lists Cl.O=C(Cc1ccc(Cl)c(Cl)c1)N1CCc2sccc2C1CN1CCCCC1 (stereo not drawn) [Example 5, hydrochloride] . Is its Ki below 2 nM?
Result: criterion met

Ask: A record lists CN(C)CC1c2ccsc2CCN1C(=O)Cc1ccc(Cl)c(Cl)c1.Cl (stereo not drawn) [Example 6, hydrochloride] . Is its Ki below 2 nM?
Result: criterion met

====

Listed next: entries and their corresponding pKi.
biological target: UniProt:A0ACM8Q262; assay: Binding to μ sites (3H-DAGO), receptor affinity study; design: species or system guinea pig; conditions: read-out: OPIATE RECEPTORS BINDING ki MU
Where a name gives a salt, the structure may show the parent alone.
Please express pKi as -log10 of the molar concentration.

> print(dat)
                                   molecule  measured.result
1  O=C(Cc1ccc(Cl)c(Cl)c1)N1CCc2sccc2C1CN1CCCCC1 (single isomer, unassigned) [Example 10, tartrate hemihydrate]             6.30

Consider the record given below.
Record CN(C)CC1c2ccsc2CCN1C(=O)Cc1ccc(C(F)(F)F)cc1 (centres unmarked) [Example 7, hydrate] . Reported pKi: 6.29

====

Test system: mice (p-phenylquinone-induced abdominal writhing)
Test: P-phenylquinone-induced abdominal writhing test in mice
Type: in vivo
Conditions: Mus musculus, sc, p-phenylquinone i.p. 2 mg/Kg after 20 min pretreatment, calculated for the free base, read-out: ANALGESIA WRITHING ED50 (a)
Description: P-phenylquinone-induced abdominal writhing test in mice The methodology employed is based on that described by Sigmund et al, Proc. Soc. Exptl. Biol. 95, 729/1957, modified by Milne and Twomey, Agents and Actions, 10, 31/1980. Male Charles River mice (Swiss Strain), 25-36 g body weight, are used. […] During this period the number of abdominal writhing responses per animal are recorded where writhing consists of an intermittent contraction of the abdomen associated with hind leg extension. […]
Counter-ions that a name gives are not always drawn.
Assay metric: ED50 (mg/kg)
Give just the numeric value; mg/kg need not be written.

> print(dat)
                                   compound  measured.result
1  O=C(Cc1ccc(Cl)c(Cl)c1)N1CCc2sccc2C1CN1CCCC1 (single isomer, unassigned) [Example 9, tartrate hemihydrate]            0.003
2  O=C(Cc1ccc2c(c1)CCC2)N1CCc2sccc2C1CN1CCCCC1 (centres unmarked) [Example 20, hydrate]            0.092
3  O=C(Cc1ccc(C(F)(F)F)cc1)N1CCc2sccc2C1CN1CCCCC1 (centres unmarked) [Example 12]            0.034
4  Cl.O=C(Cc1ccc(Cl)c(Cl)c1)N1CCc2sccc2C1CN1CCCCC1 (centres unmarked) [Example 5]            0.022
5  Cl.O.O=C(Cc1ccc(Cl)c(Cl)c1)N1CCc2sccc2C1CN1CCCC1 (centres unmarked) [Example 3]            0.004

Record O=C(Cc1ccc2c(c1)CCCC2)N1CCc2sccc2C1CN1CCCC1 (centres unmarked) [Example 21, hydrochloride] . Reported ED50: 0.022

Record Cl.O=C(Cc1ccc(C(F)(F)F)cc1)N1CCc2sccc2C1CN1CCCC1 (centres unmarked) [Example 4] . Reported ED50: 0.004

====

biological target: μ opioid receptor (Cavia porcellus, UniProt A0ACM8Q262); experiment: Binding to μ sites (3H-DAGO), receptor affinity study; parameters: species or system guinea pig; conditions: read-out: OPIATE RECEPTORS BINDING ki MU; guinea pig brain homogenate; 3H-DAGO; 40 min, 25° C.
Sequence (A0ACM8Q262 1-400): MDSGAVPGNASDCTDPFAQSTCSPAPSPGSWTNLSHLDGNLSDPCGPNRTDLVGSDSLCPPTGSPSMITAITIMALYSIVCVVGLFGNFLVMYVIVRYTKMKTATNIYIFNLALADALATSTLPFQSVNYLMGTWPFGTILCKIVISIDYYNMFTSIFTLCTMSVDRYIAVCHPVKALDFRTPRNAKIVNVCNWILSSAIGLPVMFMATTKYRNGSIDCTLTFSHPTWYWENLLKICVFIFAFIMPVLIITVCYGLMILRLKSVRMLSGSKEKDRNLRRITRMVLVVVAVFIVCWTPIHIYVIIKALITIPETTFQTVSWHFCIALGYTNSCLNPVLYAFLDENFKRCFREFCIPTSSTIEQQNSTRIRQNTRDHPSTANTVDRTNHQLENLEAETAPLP
Counter-ions that a name gives are not always drawn.
Listed next: entries and their corresponding pKi.
Please express pKi as -log10 of the molar concentration.

Reference set, count: 3
> print(dat)
                                   molecule  assay.metric  measured.result
1  O=C(Cc1ccc(C(F)(F)F)cc1)N1CCc2sccc2C1CN1CCCCC1 (stereo not shown) [Example 12]           pKi             6.10
2  Cl.O.O=C(Cc1ccc(Cl)c(Cl)c1)N1CCc2sccc2C1CN1CCCC1 (stereo not shown) [Example 3, hydrochloride monohydrate]           pKi             7.07
3  Cl.O=C(Cc1ccc(C(F)(F)F)cc1)N1CCc2sccc2C1CN1CCCC1 (stereo not shown) [Example 4, hydrochloride]           pKi             7.41

Consider the record given below.
Record O=C(Cc1ccc2c(c1)CCCC2)N1CCc2sccc2C1CN1CCCC1 (stereo not shown) [Example 21, hydrochloride] . Reported pKi: 7.25

====

target: μ opioid receptor (Cavia porcellus); assay: Binding to μ sites (3H-DAGO), receptor affinity study; parameters: species or system guinea pig; details: read-out: OPIATE RECEPTORS BINDING ki MU; guinea pig brain homogenate; 3H-DAGO; 40 min, 25° C.
pKi: −log10 of the molar value. Where a name gives a salt, the structure may show the parent alone.
Returns one of Yes or No; Yes when pKi is >= 7.

Known results for compounds:
> print(dat)
                                   compound  label
1  O=C(Cc1ccc(C(F)(F)F)cc1)N1CCc2sccc2C1CN1CCCCC1 (single isomer, unassigned) [Example 13, tartrate monohydrate]     No
2  CN(C)CC1c2ccsc2CCN1C(=O)Cc1ccc(Cl)c(Cl)c1.Cl (centres unmarked) [Example 6, hydrochloride]     No
3  Cl.O=C(Cc1ccc(Cl)c(Cl)c1)N1CCc2sccc2C1CN1CCCCC1 (centres unmarked) [Example 5, hydrochloride]     No

# input for lookup
Ask: Could you verify whether the entry O=C(Cc1ccc(Cl)c(Cl)c1)N1CCc2sccc2C1CN1CCCC1 (single isomer, unassigned) [Example 9, tartrate hemihydrate] shows pKi of no less than 7?
Result: Yes

====

tested on: mice (tail-flick); experiment: animal or person; type: in vivo; conditions: Mus musculus, sc, 0.5 h, read-out: ANALGESIA TAIL-FLICK ED50 (a)
Where a name gives a salt, the structure may show the parent alone.
Assay metric: ED50 (mg/kg)
Give just the numeric value; mg/kg need not be written.

> print(dat)
                                   compound  assay.metric  unit.abbrev  measured.result
1  O=C(Cc1ccc2c(c1)CCCC2)N1CCc2sccc2C1CN1CCCC1 (centres unmarked) [Example 21, hydrochloride]          ED50        mg/kg            0.236
2  CN(C)CC1c2ccsc2CCN1C(=O)Cc1ccc(C(F)(F)F)cc1 (centres unmarked) [Example 7, hydrate]          ED50        mg/kg            0.093
3  O=C(Cc1ccc(C(F)(F)F)cc1)N1CCc2sccc2C1CN1CCCCC1 (centres unmarked) [Example 12]          ED50        mg/kg             0.09
4  Cl.O=C(Cc1ccc2c(c1)CCC2)N1CCc2sccc2C1CN1CCCC1 (centres unmarked)          ED50        mg/kg            0.146
5  O=C(Cc1ccc2c(c1)CCCC2)N1CCc2sccc2C1CN1CCCCC1 (centres unmarked) [Example 19, hydrochloride hemihydrate]          ED50        mg/kg             0.22

Record CN(C)CC1c2ccsc2CCN1C(=O)Cc1ccc(Cl)c(Cl)c1.Cl (centres unmarked) . Reported ED50: 0.042

Record Cl.O=C(Cc1ccc(Cl)c(Cl)c1)N1CCc2sccc2C1CN1CCCCC1 (centres unmarked) . Reported ED50: 0.09

Record O=C(Cc1ccc(Cl)c(Cl)c1)N1CCc2sccc2C1CN1CCCCC1 (single isomer, unassigned) [Example 10, tartrate hemihydrate] . Reported ED50: 0.041

Record O=C(Cc1ccc(C(F)(F)F)cc1)N1CCc2sccc2C1CN1CCCCC1 (single isomer, unassigned) [Example 13, tartrate monohydrate] . Reported ED50: 0.054

Record O=C(Cc1ccc2c(c1)CCC2)N1CCc2sccc2C1CN1CCCCC1 (centres unmarked) [Example 20, hydrate] . Reported ED50: 0.412
